- SUBJECT_OF_TEST: T1, human GIP receptor (human) (UniProt P48546)
- T1 sequence (looked up): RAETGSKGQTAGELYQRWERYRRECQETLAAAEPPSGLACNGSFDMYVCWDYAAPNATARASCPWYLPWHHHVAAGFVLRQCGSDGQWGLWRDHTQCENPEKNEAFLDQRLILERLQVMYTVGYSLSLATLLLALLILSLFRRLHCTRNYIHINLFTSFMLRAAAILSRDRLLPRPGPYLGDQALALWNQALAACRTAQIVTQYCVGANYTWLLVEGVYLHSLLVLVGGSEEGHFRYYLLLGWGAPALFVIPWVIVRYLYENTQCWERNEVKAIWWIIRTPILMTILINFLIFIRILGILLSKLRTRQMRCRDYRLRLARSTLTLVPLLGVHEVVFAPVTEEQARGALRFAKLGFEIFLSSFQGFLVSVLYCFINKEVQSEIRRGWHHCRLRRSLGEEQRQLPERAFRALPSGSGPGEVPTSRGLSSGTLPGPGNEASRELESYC
- EXPERIMENT_SUMMARY: cell-based or functional assay
List of log10 Relative cAMP EC50, nM (0.1% casein) values.
RESULT_TYPE: log10 Relative cAMP EC50, nM (0.1% casein) (log10 of the value in nM)

>  <BINDER>
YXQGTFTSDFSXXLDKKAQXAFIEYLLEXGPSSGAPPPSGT (non-natural residues, acylated Lys, C-terminal amide; synthetic construct; SITE 2: note = 2-Aminoisobutyric Acid; SITE 12: note = L-ornithine; SITE 13: note = alpha-methyl-leucine; SITE 17: note = Lysine is chemically modified through conjugation of the epsilon-amino group of the Lysine side chain with (2-[2-(2-Amino-ethoxy)-ethoxy]-acetyl)2-(gamma-Glu)) [Example 165]

>  <DATA_VALUE>
-1.02

$$$$
>  <BINDER>
YXQGTFTSDFSXXLDKKAQXAFIEYLLEXGXSSGAPPPSGT (non-natural residues, acylated Lys, C-terminal amide; synthetic construct; SITE 2: note = 2-Aminoisobutyric Acid; SITE 12: note = L-ornithine; SITE 13: note = alpha-methyl-leucine; SITE 17: note = Lysine is chemically modified through conjugation of the epsilon-amino group of the Lysine side chain with (2-[2-(2-Amino-ethoxy)-ethoxy]-acetyl)2-(gamma-Glu)) [Example 184]

>  <DATA_VALUE>
-0.79

$$$$
>  <BINDER>
YXQGTFTSDFSXXLDKKAQXAFIEYLLEXGESSGAPPPSGT (Aib, Orn, αMeL, acylated K, C-terminal amide; synthetic construct; SITE 2: note = 2-Aminoisobutyric Acid; SITE 12: note = L-ornithine; SITE 13: note = alpha-methyl-leucine; SITE 17: note = Lysine is chemically modified through conjugation of the epsilon-amino group of the Lysine side chain with (2-[2-(2-Amino-ethoxy)-ethoxy]-acetyl)2-(gamma-Glu)) [Example 180]

>  <DATA_VALUE>
-0.85

$$$$
>  <BINDER>
YXQGTFTSDFSXXLDKKAQXAFIEYLLEGGHSSGAPPPGGS (Aib, Orn, αMeL; acylated Lys; C-terminal amide; synthetic construct; SITE 2: note = 2-Aminoisobutyric Acid; SITE 12: note = L-ornithine; SITE 13: note = alpha-methyl-leucine; SITE 17: note = Lysine is chemically modified through conjugation of the epsilon-amino group of the Lysine side chain with (2-[2-(2-Amino-ethoxy)-ethoxy]-acetyl)-(gamma-Glu)) [Example 162]

>  <DATA_VALUE>
-0.65

$$$$
>  <BINDER>
YXQGTXTSDXXIXLDXKAQXXFIEYLLEGGPSSGEPPPE (synthetic construct; SITE 2: note = 2-Aminoisobutyric Acid; SITE 6: note = alpha-methyl-2-fluoro-L-phenylalanine; SITE 10: note = 3-(4-Pyridyl)-L-alanine; SITE 11: note = alpha-methyl-L-serine; SITE 13: note = alpha-methyl-leucine; SITE 16: note = L-ornithine; SITE 17: note = Lysine is chemically mo) [Example 460]

>  <DATA_VALUE>
-1.20

$$$$
>  <BINDER>
YXQGTFTSDFSXXLDKKAQXAFIEYLLEGGPSSGAPPPGGQ (non-natural residues; lipidated Lys; C-terminal amide; synthetic construct; SITE 2: note = 2-Aminoisobutyric Acid; SITE 12: note = L-ornithine; SITE 13: note = alpha-methyl-leucine; SITE 17: note = Lysine is chemically modified through conjugation of the epsilon-amino group of the Lysine side chain with (2-[2-(2-Amino-ethoxy)-ethoxy]-acetyl)-(gamma-Glu)) [Example 159]

>  <DATA_VALUE>
-0.46

$$$$
>  <BINDER>
YXQGTFTSDFSXXLDKKAQXAFIEWLLEGGSSSGAPPPSGT (non-natural residues, acylated Lys, C-terminal amide; synthetic construct; SITE 2: note = 2-Aminoisobutyric Acid; SITE 12: note = L-ornithine; SITE 13: note = alpha-methyl-leucine; SITE 17: note = Lysine is chemically modified through conjugation of the epsilon-amino group of the Lysine side chain with (2-[2-(2-Amino-ethoxy)-ethoxy]-acetyl)-(gamma-Glu)) [Example 174]

>  <DATA_VALUE>
-0.70

$$$$
>  <BINDER>
YXQGTXTSDXSIXLDXKAQXXFIEXLIEGGPSSGEPPPEEG (synthetic construct; SITE 2: note = 2-Aminoisobutyric Acid; SITE 6: note = alpha-methyl-2-fluoro-L-phenylalanine; SITE 10: note = 3-(4-Pyridyl)-L-alanine; SITE 13: note = alpha-methyl-leucine; SITE 16: note = L-ornithine; SITE 17: note = Lysine is chemically modified through conjugation of the epsil) [Example 475]

>  <DATA_VALUE>
-1.76

$$$$
>  <BINDER>
YXQGTFTSDFSXXLDKKAQXAFIEWLLEGGTSSGAPPPSGS (Aib, Orn, αMeL; AEEA-γGlu-C18 diacid Lys; C-term amide; synthetic construct; SITE 2: note = 2-Aminoisobutyric Acid; SITE 12: note = L-ornithine; SITE 13: note = alpha-methyl-leucine; SITE 17: note = Lysine is chemically modified through conjugation of the epsilon-amino group of the Lysine side chain with (2-[2-(2-Amino-ethoxy)-ethoxy]-acetyl)-(gamma-Glu)) [Example 176]

>  <DATA_VALUE>
-0.67

$$$$
>  <BINDER>
YXQGTFTSDFSXXLDKKAQXAFIEWLLEGGSSSGAPPPSGE (Aib, Orn, αMeL, acylated Lys, amide; synthetic construct; SITE 2: note = 2-Aminoisobutyric Acid; SITE 12: note = L-ornithine; SITE 13: note = alpha-methyl-leucine; SITE 17: note = Lysine is chemically modified through conjugation of the epsilon-amino group of the Lysine side chain with (2-[2-(2-Amino-ethoxy)-ethoxy]-acetyl)-(gamma-Glu)) [Example 172]

>  <DATA_VALUE>
-0.76

$$$$
>  <BINDER>
YXQGTFTSDFSXXLDKKAQXAFIEWLLEGGTSSGAPPPSGE (Aib, Orn, αMeL; acylated Lys C18 diacid; C-term amide; synthetic construct; SITE 2: note = 2-Aminoisobutyric Acid; SITE 12: note = L-ornithine; SITE 13: note = alpha-methyl-leucine; SITE 17: note = Lysine is chemically modified through conjugation of the epsilon-amino group of the Lysine side chain with (2-[2-(2-Amino-ethoxy)-ethoxy]-acetyl)-(gamma-Glu)) [Example 175]

>  <DATA_VALUE>
-0.66

$$$$
>  <BINDER>
YXQGTFTSDFSXXLDKKAQXAFIEXLLEGGPSSGAPPPGGS (synthetic construct; SITE 2: note = 2-Aminoisobutyric Acid; SITE 12: note = L-ornithine; SITE 13: note = alpha-methyl-leucine; SITE 17: note = Lysine is chemically modified through conjugation of the epsilon-amino group of the Lysine side chain with (2-[2-(2-Amino-ethoxy)-ethoxy]-acetyl)-(gamma-Glu)) [Example 496]

>  <DATA_VALUE>
-0.41

$$$$

Data provenance: patent US20240270821A1
